molecular target: Neuropeptide FF receptor 2 (Homo sapiens, UniProt Q9Y5X5); assay: Agonist activity at NPFFR2 (unknown origin) expressed in HEK293-A cells assessed as reduction in forskolin-induced cAMP accumulation incubated for 30 mins by competition PKA binding assay; type: functional, cell-based; conditions: read-out: EC50
Sequence (Q9Y5X5 whole entry): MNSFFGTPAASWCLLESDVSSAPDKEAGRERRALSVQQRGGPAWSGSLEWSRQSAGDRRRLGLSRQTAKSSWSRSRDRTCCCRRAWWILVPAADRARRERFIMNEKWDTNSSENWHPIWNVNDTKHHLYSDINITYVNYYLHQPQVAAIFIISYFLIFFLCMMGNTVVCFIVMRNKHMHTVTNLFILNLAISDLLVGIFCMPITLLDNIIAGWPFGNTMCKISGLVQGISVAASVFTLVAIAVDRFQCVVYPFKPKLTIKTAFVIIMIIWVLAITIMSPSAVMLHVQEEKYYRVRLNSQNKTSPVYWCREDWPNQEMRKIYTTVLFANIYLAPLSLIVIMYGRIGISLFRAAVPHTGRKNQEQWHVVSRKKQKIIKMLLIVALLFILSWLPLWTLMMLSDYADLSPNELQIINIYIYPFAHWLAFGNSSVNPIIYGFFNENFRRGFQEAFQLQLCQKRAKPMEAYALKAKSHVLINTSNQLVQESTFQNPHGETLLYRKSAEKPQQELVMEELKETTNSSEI
Non-standard residues stand in square brackets, D forms with d. Residues, ends and D or L forms follow the SMILES beside them. NMeF = CN[C@@H](Cc1ccccc1)C(=O)O
readout: pEC50
Note: pEC50 values are expressed as the negative base-10 logarithm of concentration in M.

Task: Param readout = pEC50; param system = Neuropeptide FF receptor 2 (Homo sapiens, UniProt Q9Y5X5); param query = CC(C)C[C@H](NC(=O)[C@H](Cc1ccccc1)NC(=O)CNC(=O)[C@@H](C)NC(=O)[C@@H](N)Cc1ccc(O)cc1)C(=O)N1CCC[C@H]1C(=O)N[C@@H](CCC(N)=O)C(=O)N[C@@H](CCCNC(=N)N)C(=O)N[C@@H](Cc1ccccc1)C(N)=O (H-Y[dA]GFLPQRF-NH2) ; response: value
Result: 6.59

Task: Could you do the same for CC(C)C[C@@H](NC(=O)[C@H](Cc1ccccc1)NC(=O)CNC(=O)[C@@H](C)NC(=O)[C@@H](N)Cc1ccc(O)cc1)C(=O)N1CCC[C@H]1C(=O)N[C@@H](CCC(N)=O)C(=O)N[C@@H](CCCNC(=N)N)C(=O)N[C@@H](Cc1ccccc1)C(N)=O (H-Y[dA]GF[dL]PQRF-NH2) , please?
Result: 6.19

Task: Also CSCC[C@@H](NC(=O)[C@@H](N)Cc1ccc(O)cc1)C(=O)NCC(=O)N[C@@H](Cc1ccccc1)C(=O)N[C@@H](CCC(N)=O)C(=O)N1CCC[C@H]1C(=O)N[C@@H](CCC(N)=O)C(=O)N[C@@H](CCCNC(=N)N)C(=O)N[C@@H](Cc1ccccc1)C(N)=O , if possible.
Result: 7.38

Task: Follow-up item: CSCC[C@H](NC(=O)[C@H](Cc1ccccc1)NC(=O)CNC(=O)[C@@H](C)NC(=O)[C@@H](N)Cc1ccc(O)cc1)C(=O)N1CCC[C@H]1C(=O)N[C@@H](CCC(N)=O)C(=O)N[C@@H](CCCNC(=N)N)C(=O)N[C@@H](Cc1ccccc1)C(N)=O (H-Y[dA]GFMPQRF-NH2)
Result: 7.06

Task: Try this compound next: N=C(N)NCCC[C@H](NC(=O)[C@H](CCC(N)=O)NC(=O)[C@@H]1CCCN1C(=O)[C@H](CCC(N)=O)NC(=O)[C@H](Cc1ccccc1)NC(=O)CNC(=O)[C@@H](CO)NC(=O)[C@@H](N)Cc1ccc(O)cc1)C(=O)N[C@@H](Cc1ccccc1)C(N)=O
Result: 6.60

Task: Same question for C[C@@H](NC(=O)[C@@H](N)Cc1ccc(O)cc1)C(=O)NCC(=O)N(C)[C@@H](Cc1ccccc1)C(=O)NCC(=O)N1CCC[C@H]1C(=O)N[C@@H](CCC(N)=O)C(=O)N[C@@H](CCCNC(=N)N)C(=O)N[C@@H](Cc1ccccc1)C(N)=O (H-Y[dA]G[NMeF]GPQRF-NH2) please.
Result: 6.51

Task: What about this compound? C[C@@H](NC(=O)[C@@H](N)Cc1ccc(O)cc1)C(=O)NCC(=O)N[C@@H](Cc1ccccc1)C(=O)N[C@H](C)C(=O)N1CCC[C@H]1C(=O)N[C@@H](CCC(N)=O)C(=O)N[C@@H](CCCNC(=N)N)C(=O)N[C@@H](Cc1ccccc1)C(N)=O (H-Y[dA]GF[dA]PQRF-NH2)
Result: 5.30

Task: Again, but for C[C@@H](NC(=O)[C@@H](N)Cc1ccc(O)cc1)C(=O)NCC(=O)N[C@@H](Cc1ccccc1)C(=O)N[C@@H](CCC(N)=O)C(=O)N1CCC[C@H]1C(=O)N[C@@H](CCC(N)=O)C(=O)N[C@@H](CCCNC(=N)N)C(=O)N[C@@H](Cc1ccccc1)C(N)=O (H-Y[dA]GFQPQRF-NH2)
Result: 6.73
